- Test system: pseudotyped particle LV(Luc)-CoV2 in CaCo-2 cells
- assaySetup: 2 h
pIC50: −log10 of the molar value.
outcomeMeasure: pIC50

1) CC(=O)N[C@@H](CCCCN)C(=O)N[C@@H](CCC(N)=O)C(=O)N[C@@H](CC(C)C)C(=O)N[C@@H](CCCNC(=N)N)C(=O)c1nc2ccccc2s1 [Ref.1, Ac-KQLR-kbt, reference compound] : 5.52
2) CC(=O)NCC(=O)N[C@@H](CCC(N)=O)C(=O)N[C@@H](CCCNC(=N)N)C(=O)N[C@@H](CCCNC(=N)N)C(=O)c1nc2ccccc2s1 [Compound 3, Ac-GQRR-kbt] : 5.89
3) CC(=O)N[C@@H](CC(N)=O)C(=O)N[C@@H](CCC(=O)O)C(=O)N[C@@H](CCC(N)=O)C(=O)N[C@@H](CCCNC(=N)N)C(=O)c1nc2ccccc2s1 [Compound 6, Ac-NEQR-kbt] : 5.85
4) CC(=O)N[C@@H](CCCNC(=N)N)C(=O)N[C@@H](CCC(N)=O)C(=O)N[C@@H](CC(C)C)C(=O)N[C@@H](CCCNC(=N)N)C(=O)c1nc2ccccc2s1 [Compound 1, Ac-RQLR-kbt] : 6.10
5) CC(=O)N[C@@H](CCC(N)=O)C(=O)N[C@@H](CCC(N)=O)C(=O)N[C@H](C(=O)N[C@@H](CCCNC(=N)N)C(=O)c1nc2ccccc2s1)C(C)C [Compound 4, Ac-QQVR-kbt] : 5.69
6) CC(=O)N[C@@H](CCC(=O)O)C(=O)N[C@@H](CCC(N)=O)C(=O)N1CCC[C@H]1C(=O)N[C@@H](CCCNC(=N)N)C(=O)c1nc2ccccc2s1 [Compound 5, Ac-EQPR-kbt] : 5.68
7) CC(=O)N[C@@H](C)C(=O)N[C@@H](CCC(=O)O)C(=O)N[C@@H](CCC(N)=O)C(=O)N[C@@H](CCCNC(=N)N)C(=O)c1nc2ccccc2s1 [Compound 2, Ac-AEQR-kbt] : 6.33

---

- assayTarget: Recomb. Human Thrombin (Homo sapiens)
- Construct: purchased R&D systems 1473-SE-010
- assayRemarks: Protease Thrombin inhibition assay, chromogenic substrate D-Phe-Homopro-Arg-pNA
- Type: biochemical
- assaySetup: 30 minutes preincubation at room temperature, 100 µM reference substrate, absorption 405 nm, 25°C
pIC50: −log10 of the molar value.
Recorded pIC50 by entry
outcomeMeasure: pIC50

1. CC(=O)N[C@@H](CCCNC(=N)N)C(=O)N[C@@H](CCC(=O)O)C(=O)N[C@@H](CS)C(=O)N[C@@H](CCCNC(=N)N)C(=O)c1nc2ccccc2s1 [Compound 7, Ac-RECR-kbt] : < 4.00
2. CC(=O)N[C@@H](CCCNC(=N)N)C(=O)N[C@@H](CCC(N)=O)C(=O)N[C@@H](CC(C)C)C(=O)N[C@@H](CCCNC(=N)N)C(=O)c1nc2ccccc2s1 [Compound 1, Ac-RQLR-kbt] : < 4.00
3. CC(=O)N[C@@H](CCC(N)=O)C(=O)N[C@@H](CCC(N)=O)C(=O)N[C@H](C(=O)N[C@@H](CCCNC(=N)N)C(=O)c1nc2ccccc2s1)C(C)C [Compound 4, Ac-QQVR-kbt] : < 5.00

---

- assayTarget: Recomb. Human Coag. Factor Xa protein (Homo sapiens)
- Construct: purchased Bio-Techne GmbH 1063-SE-010
- Sequence (P00742 235-488 limits assumed): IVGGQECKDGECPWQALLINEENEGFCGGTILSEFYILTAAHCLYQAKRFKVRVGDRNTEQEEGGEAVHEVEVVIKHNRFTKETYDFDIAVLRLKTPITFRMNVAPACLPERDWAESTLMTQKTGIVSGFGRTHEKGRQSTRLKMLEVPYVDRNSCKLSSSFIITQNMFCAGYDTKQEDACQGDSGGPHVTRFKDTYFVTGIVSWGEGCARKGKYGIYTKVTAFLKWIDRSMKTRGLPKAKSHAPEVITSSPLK
- Sequence (P00742 41-179 partner limits assumed): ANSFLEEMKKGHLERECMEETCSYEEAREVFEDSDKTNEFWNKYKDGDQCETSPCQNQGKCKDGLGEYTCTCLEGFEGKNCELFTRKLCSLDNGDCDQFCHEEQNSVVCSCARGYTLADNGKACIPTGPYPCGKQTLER
- assayRemarks: Protease Factor Xa inhibition assay, chromogenic substrate Bz-Ile-Glu-Gly-Arg-pNA
- Type: biochemical
- assaySetup: 0.35 nM Factor Xa, 200 µM reference substrate, 30 minutes preincubation, absorption 405 nm, 25°C
- Text: Protease Factor Xa inhibiton assay - Calculation of IC50 values Recomb. Human Coag. Factor Xa protein, CF: Bought 09.12.2020; Art. 1063-SE-010; Company: Bio-Techne GmbH […] Graph pad prism 7 was used to analyze the data. The velocity (change of absorbance over time) was plotted against the concentration. […]
pIC50: −log10 of the molar value. Counter-ions that a name gives are not always drawn.
Parameter: pIC50. Scope: all listed entries.
outcomeMeasure: pIC50

1) N=C(N)c1ccc(CNC(=O)[C@@H]2CCN2C(=O)[C@H](NCC(=O)O)C2CCCCC2)cc1 [Ref.7, Melagatran] : 6.67
2) N=C(N)NCCC[C@H](NC(=O)[C@@H]1CCCN1C(=O)[C@H](N)Cc1ccccc1)C(=O)CCl [Ref.6, PPack] : 7.13
3) CN(C)C(=O)COC(=O)Cc1ccc(OC(=O)c2ccc(NC(=N)N)cc2)cc1 [Ref.5, Camostat mesylate] : 5.28
4) N=C(N)Nc1ccc(C(=O)Oc2ccc(CC(=O)O)cc2)cc1 [Ref.8, FOY 251] : 4.67

This collection of values is drawn from patent EP3925667A1.
